Reference source for all entries: patent EP0018104A2

System: Hypertensive Activity of Angiotensin I
Test Name: Effect against hypertensive activity of angiotensin I in anaesthetized-cannulated rats after oral dosing
Type: in vivo, Male rats (Sprague-Dawley)
Details: Rattus norvegicus, 20 min, After 20 min, 138 µM/kg orally, corrected by angiotensin II response, read-out: Percent Inhibition (%) against Hyper-tensive Reaction by Angiotensin I After 20 min
Readout Label: inhibition in vivo at 138 µM, 138 µmol/kg (%)
Give just the numeric value; % need not be written.

Solved entries:
CC(=O)SCC(C)C(=O)N1Cc2cc3c(cc2CC1C(=O)O)CCCC3 (centres unmarked) ... 90
CC(=O)SCC(CSC(C)=O)C(=O)N1Cc2cc3c(cc2CC1C(=O)O)CCCC3 (centres unmarked) ... 80
CC(=O)SCC(C)C(=O)N1Cc2cc(C(C)(C)C)ccc2CC1C(=O)O (centres unmarked) ... 86
CC(CS)C(=O)N1Cc2cc(C(C)(C)C)ccc2C[C@H]1C(=O)O (some centres unmarked) ... 100
CC(=O)SCC(CSC(C)=O)C(=O)N1Cc2ccc(O)cc2CC1C(=O)O (centres unmarked) ... 82

Data request: Notebook entry, Hypertensive Activity of Angiotensin I assay: inhibition in vivo at 138 µM, 138 µmol/kg of CC(=O)SCC(CSC(C)=O)C(=O)N1Cc2cc(C(C)C)ccc2CC1C(=O)O (centres unmarked) = ?
Data returned: 78

Data request: What would you report for COc1ccc2c(c1)CN(C(=O)C(C)CSC(C)=O)C(C(=O)O)C2 (centres unmarked) ?
Data returned: 80

Data request: What would you report for CC(=O)SCC(C)C(=O)N1[C@H](C)c2cc(O)c(O)cc2C[C@H]1C(=O)O (some centres unmarked) ?
Data returned: 84

Data request: What would you report for CC(=O)SCC(C)C(=O)N1Cc2cc(N3CCCC3)ccc2CC1C(=O)O (centres unmarked) ?
Data returned: 100

Data request: What would you report for "CC(=O)SCC(CSC(C)=O)C(=O)N1Cc2cc(O)c(O)cc2C[C@H]1C(=O)O" ?
Data returned: 80

Data request: What would you report for O=C(O)C1Cc2cc3c(cc2CN1C(=O)C(CS)CS)OCO3 (centres unmarked) ?
Data returned: 95
